Listed binders paired with reported OD450 measurements
- SYSTEM_UNDER_TEST: CD47 protein (Acrobiosystems, cat#CD7-HA2E9) (UniProt Q08722)
- Sequence (Q08722 19-139 limits assumed): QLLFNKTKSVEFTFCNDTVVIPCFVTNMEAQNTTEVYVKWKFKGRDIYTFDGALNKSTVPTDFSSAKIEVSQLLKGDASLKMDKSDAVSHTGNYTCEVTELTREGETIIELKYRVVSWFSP
- EXPERIMENT_NOTES: ELISA, CD47 protein coated 100 ng/well, 0.8 µg antibody per well
ASSAY_METRIC: OD450 measurements (OD450)

# BINDER, UNIT_SPEC, MEASURED_NUMBER
measured = [
    ("Hu3A5 (V1) antibody (antibody, V domains shown, Humanized 3A5) VH: EVQLVQSGAEVKKPGASVKVSCKASGYTFTSYWMHWMRQAPGQGLEWIGVIDPSDSYTSYNQKFQGRVTLTVDTSTSTAYMELSSLRSEDTAVYYCARGGKRAMDYWGQGTTVTVSS VL: DVVMTQSPLSLPVTLGQPASISCRSSQSLVHSNGNTYLHWFQQRPGQSPRLLIYKVSNRFSGVPDRFSGSGSGTDFTLKISRVEAEDVGVYFCSQSTHVPFTFGGGTKLEIK", "OD450", 2.58),
    ("Hu3A5 (V8) antibody (antibody, V domains shown, Humanized 3A5) VH: QVQLVQSGAEVKKPGASVKVSCKASGYTFTSYWMHWVRQAPGQGLEWMGVIDPSDSYTSYNQKFQGRVTMTVDTSTSTAYMELSSLRSEDTAVYYCARGGKRAMDYWGQGTTVTVSS VL: DVVMTQSPDSLAVSLGERATINCKSSQSLVHSNGNTYLHWYQQKPGQPPKLLIYKVSNRFSGVPDRFSGSGSGTDFTLTISSLQAEDVAVYYCSQSTHVPFTFGGGTKLEIK", "OD450", 2.45),
    ("Hu3A5 (V5) antibody (antibody, V domains shown, Humanized 3A5) VH: QVQLVQSGAEVKKPGASVKVSCKASGYTFTSYWMHWVRQAPGQGLEWMGVIDPSDSYTSYNQKFQGRVTMTVDTSTSTAYMELSSLRSEDTAVYYCARGGKRAMDYWGQGTTVTVSS VL: DVVMTQSPLSLPVTLGQPASISCRSSQSLVHSNGNTYLHWFQQRPGQSPRLLIYKVSNRFSGVPDRFSGSGSGTDFTLKISRVEAEDVGVYFCSQSTHVPFTFGGGTKLEIK", "OD450", 2.57),
    ("Hu3A5 (V4) antibody (antibody, V domains shown, Humanized 3A5) VH: EVQLVQSGAEVKKPGASVKVSCKASGYTFTSYWMHWMRQAPGQGLEWIGVIDPSDSYTSYNQKFQGRVTLTVDTSTSTAYMELSSLRSEDTAVYYCARGGKRAMDYWGQGTTVTVSS VL: DVVMTQSPDSLAVSLGERATINCKSSQSLVHSNGNTYLHWYQQKPGQPPKLLIYKVSNRFSGVPDRFSGSGSGTDFTLTISSLQAEDVAVYYCSQSTHVPFTFGGGTKLEIK", "OD450", 2.74),
]
